DcR3-His binding, % of irrelevant mAb values for the binders below.
Target: T1, human LIGHT (TNFSF14), full length, membrane-bound (214E allele) (human, UniProt O43557 1-240)
T1 construct: also called membrane LIGHT; human membrane LIGHT
T1 sequence (O43557 whole entry K214E): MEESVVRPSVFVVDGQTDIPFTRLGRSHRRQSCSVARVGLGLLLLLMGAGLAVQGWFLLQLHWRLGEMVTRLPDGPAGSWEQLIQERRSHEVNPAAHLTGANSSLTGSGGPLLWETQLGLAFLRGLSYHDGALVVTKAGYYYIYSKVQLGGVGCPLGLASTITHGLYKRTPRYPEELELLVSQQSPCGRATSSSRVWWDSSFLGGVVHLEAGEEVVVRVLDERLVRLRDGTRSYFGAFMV
Test: DcR3-His (1 nM) competition, EL4-LIGHT, flow cytometry; 0.41 nM
MEASURED_ATTRIBUTE: DcR3-His binding, % of irrelevant mAb

[[record]]
binder = "3E09 (antibody, V domains shown, chimeric human IgG4 (S-to-P, L-to-E at 248), human CL; also called Parental 3E09) VH: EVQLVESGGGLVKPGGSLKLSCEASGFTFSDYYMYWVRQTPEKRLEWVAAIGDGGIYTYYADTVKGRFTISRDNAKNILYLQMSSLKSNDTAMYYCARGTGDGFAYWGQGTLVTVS VL: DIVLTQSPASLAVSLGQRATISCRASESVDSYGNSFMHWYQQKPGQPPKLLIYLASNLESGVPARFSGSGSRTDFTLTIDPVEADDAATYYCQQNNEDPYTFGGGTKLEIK"
measured_attribute = "DcR3-His binding, % of irrelevant mAb"
reported_value = "94.2%"

[[record]]
binder = "3C10 (antibody, human IgG4, V domains shown, chimeric human IgG4 (S-to-P, L-to-E at 248), human CL; also called Parental 3C10) VH: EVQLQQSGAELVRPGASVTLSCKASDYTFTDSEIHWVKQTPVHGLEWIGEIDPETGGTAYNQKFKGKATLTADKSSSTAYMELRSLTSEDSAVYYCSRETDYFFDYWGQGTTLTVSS VL: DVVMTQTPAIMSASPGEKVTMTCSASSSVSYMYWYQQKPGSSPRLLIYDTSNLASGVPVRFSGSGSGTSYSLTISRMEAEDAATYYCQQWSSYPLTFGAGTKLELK"
measured_attribute = "DcR3-His binding, % of irrelevant mAb"
reported_value = "124%"

[[record]]
binder = "2E08 (antibody, human IgG4, V domains shown, chimeric human IgG4 (S-to-P, L-to-E at 248), human CL; also called Parental 2E08) VH: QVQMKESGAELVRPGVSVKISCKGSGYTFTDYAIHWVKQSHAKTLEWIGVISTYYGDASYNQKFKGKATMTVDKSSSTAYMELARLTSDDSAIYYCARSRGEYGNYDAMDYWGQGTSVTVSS VL: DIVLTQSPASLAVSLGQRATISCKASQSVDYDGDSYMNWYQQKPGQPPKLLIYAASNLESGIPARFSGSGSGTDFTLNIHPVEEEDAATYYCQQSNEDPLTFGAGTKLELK"
measured_attribute = "DcR3-His binding, % of irrelevant mAb"
reported_value = "107%"

[[record]]
binder = "2B11 (antibody, human IgG4, V domains shown, chimeric human IgG4 (S-to-P, L-to-E at 248), human CL; also called Parental 2B11) VH: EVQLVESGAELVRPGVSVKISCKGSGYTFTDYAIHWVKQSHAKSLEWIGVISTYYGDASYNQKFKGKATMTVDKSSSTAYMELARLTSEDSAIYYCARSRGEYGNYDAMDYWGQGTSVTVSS VL: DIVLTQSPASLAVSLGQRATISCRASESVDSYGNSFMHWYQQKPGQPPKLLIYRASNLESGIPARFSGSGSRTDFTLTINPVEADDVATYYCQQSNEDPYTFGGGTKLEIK"
measured_attribute = "DcR3-His binding, % of irrelevant mAb"
reported_value = "114%"

